details: in 1,4-dioxane, 333.36 K
measured-endpoint: solubility (mole fraction)
Please state the value as a number alone, without comment.

Given the entry O=P1(Oc2ccccc2)OCC2(CO1)COP(=O)(Oc1ccccc1)OC2 (stereo unspecified) , report its measured solubility (mole fraction).
0.00438

----------
settings: in 2-butanone, 333.17 K
measured-endpoint: solubility (mole fraction)
I only need the number, thanks.

Request the reported solubility (mole fraction) associated with O=P1(O)OCC2(CO1)COP(=O)(O)OC2 (stereo unspecified)
0.0018

----------
conditions: in THF, 318.31 K
measured-endpoint: solubility (mole fraction)
The answer should be a number; do not append a unit.

Param item = O=P1(Oc2ccccc2)OCC2(CO1)COP(=O)(Oc1ccccc1)OC2 (stereo unspecified) ; retrieve measured solubility (mole fraction).
0.0115

----------
details: in acetic acid, 308.14 K
measured-endpoint: solubility (mole fraction)

What value of solubility (mole fraction) has been recorded for this entry: `O=C(O)CCP(=O)(O)c1ccccc1`
0.0147

----------
settings: in pyridine, 303.51 K
measured-endpoint: solubility (mole fraction)
Output spec: single numeric token, no unit.

Give the measured solubility (mole fraction) of O=P1(Oc2ccccc2)OCC2(CO1)COP(=O)(Oc1ccccc1)OC2 (stereo unspecified) .
0.00964

----------
conditions: in chloroform, 333.13 K
measured-endpoint: solubility (mole fraction)
Answer with a bare number; do not write a unit.

So what does the record say about solubility (mole fraction) for O=P1(Oc2ccccc2)OCC2(CO1)COP(=O)(Oc1ccccc1)OC2 (stereo unspecified) ?
0.0234

----------
conditions: in ethanol, 303.18 K
measured-endpoint: solubility (mole fraction)
// response body must contain only the number

// solubility (mole fraction) lookup, key: `COc1ccc(P(c2ccc(OC)cc2)c2ccc(OC)cc2)cc1`
0.00121

----------
conditions: in acetone, 317.15 K
measured-endpoint: solubility (mole fraction)
The answer should be a number; do not append a unit.

Any idea what its solubility (mole fraction) is? The compound is O=P1(O)OCC2(CO1)COP(=O)(O)OC2 (stereo unspecified)
0.0057

----------
settings: in benzene, 298.17 K
Entries and their solubility (mole fraction)

Answered cases to consult:
compound | measured-endpoint | result
O=P1(O)OCC2(CO1)COP(=O)(O)OC2 (stereo not given) | solubility (mole fraction) | 0.00038
O=C(O)CCP(=O)(O)c1ccccc1 | solubility (mole fraction) | 0.00091
COc1ccc(P(c2ccc(OC)cc2)c2ccc(OC)cc2)cc1 | solubility (mole fraction) | 0.00037
O=P(O)(CO)c1ccccc1 | solubility (mole fraction) | 0.0011

Now look at this entry.
Any idea what its solubility (mole fraction) is? The compound is `COc1ccc(P(=O)(c2ccc(OC)cc2)c2ccc(OC)cc2)cc1`
0.00039

----------
settings: in acetonitrile, 343.44 K
measured-endpoint: solubility (mole fraction)

Name the reported solubility (mole fraction) value associated with the molecule O=P1(Oc2ccccc2)OCC2(CO1)COP(=O)(Oc1ccccc1)OC2 (stereo unspecified)
0.00841

----------
# Lookup of reported solubility (mole fraction) keyed by entry
details: in toluene, 318.17 K
Please give only the number in your answer, with no unit.

smiles-representation | solubility (mole fraction)
COc1ccc(P(c2ccc(OC)cc2)c2ccc(OC)cc2)cc1 | 0.00089
O=P(O)(CO)c1ccccc1 | 0.0023
COc1ccc(P(=O)(c2ccc(OC)cc2)c2ccc(OC)cc2)cc1 | 0.00099

As a next step, examine the compound that follows.
Find the recorded solubility (mole fraction) belonging to `O=C(O)CCP(=O)(O)c1ccccc1` and report it.
0.00105

Where these numbers come from: BigSolDB 2.1
